Experiment: protein stability index of a GFP-peptide fusion (yeast GPS) (PSI 1-4); higher = more stable; sorted into four equal gates, so the index is relative within each strain
Conditions: doa10∆
Kindly return 1.0 if reported protein stability index is no lower than 2; return 0.0 if it is lower.

FGQDVSPMINSTSSGKV [SNM1] :: 1.0

Check the entry KHGAVHMSTYLKIYKVG [RPL21B] : does protein stability index equal or exceed 2?
0.0

Check the entry ETVKLPRVSNQSNEDTF [RRI2] : does protein stability index equal or exceed 2?
1.0

Check the entry LPSPESLKTKLNSNIRA [SNF5] : does protein stability index equal or exceed 2?
0.0

====

Assay: protein stability index of a GFP-peptide fusion (yeast GPS) (PSI 1-4); higher = more stable; sorted into four equal gates, so the index is relative within each strain
Details: pdr5∆
# thresholds on protein stability index define classes: LOW = under 2, MID = from 2 up to 3, HIGH = 3 and over

Answered examples (3):
NVESVGSIPVDQVVVRG [RPB3] :: MID
LNGILADEMGLGKTIQT [SNF2] :: MID
KHWQERVKVHFDQAGKK [RPL13A] :: MID

Consider NYAMTRNILHNTVPQVT [SRB5] . To which protein stability index class does it belong?
MID

Consider YLERTLDTFIKIDGNPD [PRE5] . To which protein stability index class does it belong?
HIGH

Consider FKKAAPSPISHVAEIRS [RPB2] . To which protein stability index class does it belong?
LOW

====

Test: protein stability index of a GFP-peptide fusion (yeast GPS) (PSI 1-4); higher = more stable; sorted into four equal gates, so the index is relative within each strain
Conditions: doa10∆
Measured protein stability index by item

DRKKDKNVKHSGNIQLD [RPL12A] :: 3.31

Query (sequence): STSNALKVLSGDEGYNE [SNF12] ; field requested: protein stability index
3.39

Query (sequence): YDEDPYGFEDESAPITA [RPB2] ; field requested: protein stability index
3.05

Query (sequence): GQPVNDFIDTATRHVLM [RPS3] ; field requested: protein stability index
2.96

====

Assay: protein stability index of a GFP-peptide fusion (yeast GPS) (PSI 1-4); higher = more stable; sorted into four equal gates, so the index is relative within each strain
Settings: pdr5∆
endpoint.name: protein stability index
The answer should be written as a number, with no unit following it.

Query (sequence): VDQEMLYEIILAANYLN [SKP1] ; field requested: protein stability index
1.72

Query (sequence): MAKVHGSLARAGKVKSQ [RPS30A] ; field requested: protein stability index
2.7

Query (sequence): LKLNTSLPSKLTKYKEM [SRP68] ; field requested: protein stability index
1.74

Query (sequence): FEKKLSIIKAKLPLLNE [YML103C/NUP188] ; field requested: protein stability index
1.98

Query (sequence): KDPVDFVRQAAMIALSM [RPN2] ; field requested: protein stability index
2.21

====

Test: protein stability index of a GFP-peptide fusion (yeast GPS) (PSI 1-4); higher = more stable; sorted into four equal gates, so the index is relative within each strain
Conditions: san1∆
Measured protein stability index by item
The answer should be written as a number, with no unit following it.

Recorded results for 4 sequences are shown here.
KCQELVTNIRRIIQDNI [RRP46] :: 3.08
CSSATVPKHMLDKLDEI [AAR2] :: 2.98
YFRILLPYERHMISQEG [SWI1] :: 1.5
TLSNAERAKNVNGLLQV [GAL11] :: 3.08

Turning now to a further sequence:
Query (sequence): SGDKEATAPLIQRKNKK [RPN8] ; field requested: protein stability index
3.25

====

Assay: protein stability index of a GFP-peptide fusion (yeast GPS) (PSI 1-4); higher = more stable; sorted into four equal gates, so the index is relative within each strain
Conditions: san1∆
endpoint.name: protein stability index
The answer should be written as a number, with no unit following it.

Recorded results for 3 sequences are shown here.
RSLATAVATPKAEVTQL [COR1] :: 2.98
MTMQVAVPRDELGRSNY [FAS1] :: 2.99
KKSRSNLSQENDNEGKH [YAR002W/NUP60] :: 2.91

Query (sequence): TNLSGGEKTLSSLALVF [SMC4] ; field requested: protein stability index
3.04

Query (sequence): AVAGLTADAEILINTAR [PRE9] ; field requested: protein stability index
3.07

Query (sequence): LQGDLTFTKKCLENARS [SIR4] ; field requested: protein stability index
3.05

Query (sequence): TMRKISSETDDDHSQVI [DSN1] ; field requested: protein stability index
3.1

====

Assay: protein stability index of a GFP-peptide fusion (yeast GPS) (PSI 1-4); higher = more stable; sorted into four equal gates, so the index is relative within each strain
Conditions: doa10∆
endpoint.name: protein stability index
The answer should be written as a number, with no unit following it.

LLEGLNEKIEKRSDLTG [UBP6] :: 2.89
NDQALIKVLLRQNRRPE [RET1] :: 1.83

Query (sequence): DANGVSLFELIVPIFQL [YJL039C/NUP192] ; field requested: protein stability index
2.37

Query (sequence): DAAEEEKEEEAKEESDD [RPP2B] ; field requested: protein stability index
2.88

Query (sequence): DRETALDFIGRRGTALG [RPB2] ; field requested: protein stability index
2.23

Query (sequence): LLNEYRPHQSRESLIML [MED7] ; field requested: protein stability index
2.31

Query (sequence): VIVPQIVLDEVRNKSYP [DIS3] ; field requested: protein stability index
2.68

Query (sequence): VETNTTVLADEFIAHRL [RPB3] ; field requested: protein stability index
3.05

Query (sequence): MSRPQVTVHSLTGEATA [RPL4A] ; field requested: protein stability index
1.59

Query (sequence): ESLKNLNESRSQHKKIL [SMC3] ; field requested: protein stability index
2.78

Query (sequence): VLPNTALKTSIQHVGMI [FAS1] ; field requested: protein stability index
2.95

Query (sequence): VGGTTSISGFKEALLGQ [ARP9] ; field requested: protein stability index
2.67

Query (sequence): RFTKFSDTLKEFKIEQN [YDL116W/NUP84] ; field requested: protein stability index
1.74

====

Test: protein stability index of a GFP-peptide fusion (yeast GPS) (PSI 1-4); higher = more stable; sorted into four equal gates, so the index is relative within each strain
Conditions: pdr5∆
endpoint.name: protein stability index
The answer should be written as a number, with no unit following it.

IYAKYGAKGSTLIVVPF [FAS2] :: 2.72
MLLLNDSVENSSNILED [SRB8] :: 2.57
STKKKILGIHTSKMNLS [RPT2] :: 3.21
EKTYTKAPKIQRLVTPQ [RPS6A] :: 2.43

Query (sequence): WKEVLAHNPELERYVKR [RPO31] ; field requested: protein stability index
3.85

Query (sequence): DQLLTDLIETSFTCFAQ [NUT1] ; field requested: protein stability index
1.9

====

Experiment: protein stability index of a GFP-peptide fusion (yeast GPS) (PSI 1-4); higher = more stable; sorted into four equal gates, so the index is relative within each strain
Conditions: pdr5∆
endpoint.name: protein stability index
The answer should be written as a number, with no unit following it.

AKIISKAPEQFIENFLT [YML103C/NUP188] :: 2.94
LAEEVVDNIVNKYQYSL [SRP68] :: 2.98
DSDKGSKLNELKKELKL [SMC2] :: 3.02
MAKTLKDLDGWQVIITD [SIR3] :: 2.4
ETAAMASLALAHVFVGT [RPN1] :: 1.58

Turning now to a further sequence:
Query (sequence): RKAYFTAPSSQRRVLLS [RPL26A] ; field requested: protein stability index
2.14

====

Assay: protein stability index of a GFP-peptide fusion (yeast GPS) (PSI 1-4); higher = more stable; sorted into four equal gates, so the index is relative within each strain
Conditions: san1∆
Kindly return Condition met if reported protein stability index is no lower than 2; return Condition not met if it is lower.

Answered examples (8):
KKNIQKAKSNQTQREKA [IRR1] :: Condition met
VKEYQLRDRNFSATGNF [RPL11A] :: Condition met
GGNNNNNSTGIANDNVI [SWI1] :: Condition met
VLPNTALKTSIQHVGMI [FAS1] :: Condition not met
VLRINKMLSCAGADRLQ [RPL10] :: Condition not met
FASLRVLPDADVKLLHS [YJL039C/NUP192] :: Condition not met
SDDKTRQLSPHTLMSFA [PRE1] :: Condition met
INHKINNKITQLIAKNV [SIR3] :: Condition met

Check the entry SKQLSLEEKKKRPNNKT [IRR1] : does protein stability index equal or exceed 2?
Condition met

Check the entry STLYKYLKESKRKYDEI [SWI3] : does protein stability index equal or exceed 2?
Condition met

Check the entry WIQVFGLRTENVLDYFA [MED6] : does protein stability index equal or exceed 2?
Condition met

Check the entry NLFPLKPKMLPIPSKPT [SRP68] : does protein stability index equal or exceed 2?
Condition met

Check the entry SFLGEAKSMAFLKEVLS [YML103C/NUP188] : does protein stability index equal or exceed 2?
Condition met

Check the entry SDLVNQGIIYAKVNRPA [RPN5] : does protein stability index equal or exceed 2?
Condition met

Check the entry VRAVNTGMEPGKTSFFQ [RPP0] : does protein stability index equal or exceed 2?
Condition met

Check the entry QLGYIENSFYKKEASKT [POP1] : does protein stability index equal or exceed 2?
Condition met
